All figures here come from PubChem BioAssay (NCI).

Tested on: MDA-MB-231 breast
protocol.description: NCI-60 one-dose screen, 48 h (100 = growth as untreated, 0 = no growth, -100 = all killed)
test.parameters: 10 µM unless noted
Compounds without any hit were thinned out: in the full panel of roughly 83,000, 20% have a hit.
observation.type: growth (%)
Use % as the unit, but write only the number.

Would you please look over these solved cases?
COC(=O)Nc1nc2ccc(Sc3ccccc3)cc2[nH]1 ... 45.6
FC(F)(F)c1cn(CCN2CCOCC2)c2ncnc(Cl)c12 ... 63.8

Returns the measured growth for the input compound. Input: "COc1ccc(/C=C/C(=O)/C=C(/C=C/c2ccc(OC)c(OC)c2OC)OB(F)F)c(OC)c1OC" 7.37

---

Tested on: RXF 393 renal
protocol.description: NCI-60 one-dose screen, 48 h
test.parameters: 10 µM unless noted
Experimental: Cells are grown in 96 well plates and exposed to the test compound for 48 hours. Compounds are tested at a single concentration, which is 10^-5 M for most compounds. The reported endpoint is percent growth (GI% or GIPRCNT), where numbers from 0 - 100% represent growth inhibition, and numbers from -100% - 0 represent cell death. For example, a value of 40 represents 60% growth inhibition. A value of 0 means no net growth occurred over the course of the experiment. […]
The panel holds about 83,000 compounds, 20% with a hit somewhere; the sample as a whole holds those more often. Active and inactive are the calls of the source. The calls were made as follows: active = growth percent below 10; inactive = the rest.
Choose one outcome from this list and give only that: y = active, n = inactive

O=C(NCCNc1nccc(-c2c(-c3cccc(O)c3)nc3sccn23)n1)c1cc(N2CCOCC2)cc(C(F)(F)F)c1 ... n
O=C(C[n+]1cccc(Br)c1)c1ccc2c(c1)CCCC2 ... n
Cc1c(Cl)ccc2c(C(=O)Cl)cc(-c3ccccc3)nc12 ... n
COc1ccc(Cl)cc1NC(=O)c1cc2c([nH]1)-c1nc(N)sc1CCC2 ... n
O=C(c1ccccc1)[C@H]1[C@@H]2CCCN2[C@]2(C(=O)Nc3ccc(F)cc32)[C@]12C(=O)Nc1ccccc12 ... n

Each compound tested received a call. Report the one for Cc1cn([C@]2(CF)O[C@H](CO)C2C)c(=O)[nH]c1=O (some centres not stated) . n

Each compound tested received a call. Report the one for "CNCCCOc1c(Br)cc(CCNC(=O)/C(Cc2cc(Br)c(OC)c(Br)c2)=N/O)cc1Br" . y

---

Tested on: OVCAR-8 ovarian
protocol.description: NCI-60 one-dose screen, 48 h
test.parameters: 10 µM unless noted
Compounds without any hit were thinned out: in the full panel of roughly 83,000, 20% have a hit. Activity calls are given as the source filed them. Rule for the calls: active = growth percent below 10; inactive = the rest.
Choose one outcome from this list and give only that: active, inactive

Solved cases below.
Cc1ccc[n+](CC(=O)c2cccc3ccccc23)c1 ... inactive
Nn1c(CN2CCN(c3cc4c(cc3F)c(=O)c(C(=O)O)cn4C3CC3)CC2)n[nH]c1=S ... inactive

Each molecule tested received a call. Report the one for "O=C(CSc1nnc(-c2cc3c([nH]c4ccccc43)c(-c3cccc(O)c3)n2)n1-c1ccccc1)c1ccccc1" . inactive

Each molecule tested received a call. Report the one for "Cc1ccc(/C=C2/C(=O)Nc3cc(Cl)c(-c4csc(N)n4)cc32)cc1" . inactive

---

Examples of compounds with documented growth follow.
System: HCT-116 colon
protocol.description: NCI-60 one-dose screen, 48 h (100 = growth as untreated, 0 = no growth, -100 = all killed)
test.parameters: 10 µM unless noted
Compounds without any hit were thinned out: in the full panel of roughly 83,000, 20% have a hit.
Use % as the unit, but write only the number.

Would you please look over these solved cases?
COc1cc(Cn2cc3c(c2)-c2onc(CO)c2CC3)cc(OC)c1OC ... 84
CCOC(=O)C(C)(CSSCC(C)(NC(=O)c1ccc2ccccc2c1)C(=O)OCC)NC(=O)c1ccc2ccccc2c1 (stereo not drawn) ... 47
COc1ccc(Cn2cc3c(c2-c2cc(OC)c(OC)c(OC)c2)CCc2c(CO)noc2-3)cc1 ... 7.89
CCn1cc(C(=O)O)c(=O)c2cc(F)c(N3CCN(CC(=O)Nc4ccc(C(C)=O)cc4)CC3)cc21 ... 104
Nc1nc(Cl)cc(NCCCCNc2cc(Cl)nc(N)n2)n1 ... 102
Cc1cc(O[C@@H]2O[C@@H](C)[C@H](O)[C@@H](O)[C@H]2O)c2c3c(c(O[C@@H]4O[C@@H](C)[C@H](O)[C@@H](O)[C@H]4O)cc2c1)C(=O)c1c(O)cccc1C3=O ... 81

Returns the measured growth for the input compound. Input: CC1OC(n2c3ccccc3c3c4c(c5c6ccccc6[nH]c5c32)C(=O)N(CCN[C@@H]2CCC[C@H]2N)C4=O)CC(O)C1O (stereo partly drawn) 9.41

Returns the measured growth for the input compound. Input: "CC(=O)CC/C=C(\C)[C@H](O)[C@H](C)C(=O)O[C@H]1C[C@H](C)C=C2C=C[C@@]3(C)O[C@@H](O)CC(=O)[C@]3(C)[C@H]21" -20.3

Returns the measured growth for the input compound. Input: "COc1ccc(-c2nnc(NC(=O)CN3CCN(c4cc5c(cc4F)c(=O)c(C(=O)O)cn5C4CC4)CC3)s2)cc1OC" 103

Returns the measured growth for the input compound. Input: "COc1ccc(-c2nn(-c3ccc(NC(=O)c4cc(Cl)cc(Cl)c4)cc3)cc2-c2ccncc2)cc1Cl" 55.7

Returns the measured growth for the input compound. Input: "COc1cc(-c2nc3ccccc3s2)ccc1OCc1nc2n(n1)S(=O)(=O)c1ccccc1N2C" 66.1

Returns the measured growth for the input compound. Input: "CCn1cc(/C=C2\Oc3cc(OCC#N)ccc3C2=O)c2cc(OC)ccc21" 12.4

Returns the measured growth for the input compound. Input: "O=C(/C=C/c1ccccc1)Oc1ccc(/C=C/c2cc(OC(=O)/C=C/c3ccccc3)cc(OC(=O)/C=C/c3ccccc3)c2)cc1" 96.3

Returns the measured growth for the input compound. Input: S=C=NP1(N=C=S)=NP(N=C=S)(N=C=S)=NP(N=C=S)(N=C=S)=NP(N=C=S)(N=C=S)=N1 (stereo not drawn) 98.8

Returns the measured growth for the input compound. Input: "COc1ccc(-c2nnc(SCC(=O)N3CCN(c4cc5c(cc4F)c(=O)c(C(=O)O)cn5C4CC4)CC3)o2)cc1OC" 55.3

Returns the measured growth for the input compound. Input: CC(C)(C)NCC(O)COc1c(Br)c(Br)c(Br)c2c1OC(C)(C)C2 (stereo not drawn) -26.5

Returns the measured growth for the input compound. Input: "COc1ccc(C(=O)NC(=O)Nc2ccc3c(c2)NC(=O)/C3=C\c2[nH]c(C)c(C(=O)O)c2C)cc1" 48.1

Returns the measured growth for the input compound. Input: CCC(CC(C)C)Nc1ccc(NC(CC)CC(C)C)cc1 (stereo not drawn) 59.2

Returns the measured growth for the input compound. Input: "COc1ccc2c(c1)O/C(=C/c1ccc(OCC(=O)Nc3ccc(S(N)(=O)=O)cc3)cc1)C2=O" 95.2

Returns the measured growth for the input compound. Input: COc1ccc2c(c1)OC(N)=C(C#N)C2c1ccc(F)cc1 (stereo not drawn) 24.9

Returns the measured growth for the input compound. Input: "O=C(C[n+]1ccccc1Cl)c1ccc2c(c1)CCCC2" 80.3

Returns the measured growth for the input compound. Input: "Cl[C@@H]1CCO[C@H](c2cc3ccccc3c3ccccc23)C1" 90.3
